system: MAST2, Q6P0Q8
Sequence (Q6P0Q8 1099-1202): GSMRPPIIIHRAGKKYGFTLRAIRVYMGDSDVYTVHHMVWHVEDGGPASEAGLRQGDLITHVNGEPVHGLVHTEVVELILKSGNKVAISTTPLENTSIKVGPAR
assayOverview: holdup assay
Parameters: key: below the threshold = too weak to quantify, mostly under pKd 3.1 to 4
conditionNotes: plain residues with an end cap or a label only (N-terminal biotin on a linker: ado-ado)
measurementType: pKd
Just the number, please, no unit after it.

The value of pKd measured for the binder TSQESEDTYL [TBC1D10A, Q9BXI6] turned out to be 5.41

Form: binder = QSPANIYYKV [EFNB1, P52799] ; pKd = 4.56

Per the records, this binder ( QPCFNKLFPL [LPXN, O60711] ) has pKd equal to 4.75
